Record form. Attribute: Metab. Stabil. (m). Fill in for each entry.
Assay: rat microsomal stability (RLM)
Details: microsomal stability half-life
Kindly provide the numeric value in m only, without the unit symbol.

*Q* Look up and report measured Metab. Stabil. (m) for this entry: COC(=O)c1ccc(NC(=O)C2=C(C)NC(Nc3nc4ccccc4o3)=NC2c2ccccc2Cl)cc1 (stereo not shown) [Compound 138]
*A* 17.7182

*Q* // Input: CC1=C(C(=O)NCc2ccc(CO)cc2)C(c2ccccc2Cl)N=C(Nc2nc3ccccc3o2)N1 (stereo not shown) [Compound 228] . Output its Metab. Stabil. (m) only.
*A* 13.8241

*Q* Report Metab. Stabil. (m) for CC1=C(C(=O)NCc2nc3ccccc3n2C)C(c2ccccc2Cl)N=C(Nc2nc3ccccc3o2)N1 (stereo not shown) [Compound 234]
*A* 4.516

*Q* Give a short answer stating reported Metab. Stabil. (m) for CC1=C(C(=O)NCc2cn(C)cn2)C(c2ccccc2Cl)N=C(Nc2nc3ccccc3o2)N1 (racemic) [Compound 233] .
*A* 14.56

*Q* Input COC(=O)c1ccc(CNC(=O)C2=C(C)NC(Nc3nc4ccccc4o3)=NC2c2ccccc2Cl)cc1 (stereo not shown) [Compound 223] , output reported Metab. Stabil. (m).
*A* 8.495

*Q* Please list Metab. Stabil. (m) recorded for the compound CC1=C(C(=O)Nc2ccccc2)C(c2ccccc2Cl)N=C(Nc2nc3ccccc3o2)N1 (stereo not shown) [Compound 137]
*A* 24
